PROTOCOL_TEXT: Mycobacterium tuberculosis growth inhibition, primary screen (AID 1259343)
EXPERIMENTAL_PARAMETERS: at 10 µM
Hit rate of the full screen: of about 6,200 compounds, about 2,900 (47%) were called active. Cut-off read from the data, not from the text of the source: active = inhibition above about 50%; inactive = the rest. The set was probably picked from earlier hits. The list shows a part of the results.
Please state which outcome applies, choosing from true (1) = active, false (0) = inactive

### Prompt What is the recorded call for this compound in the test? `Cc1ccc(Nc2nc(-c3ccccc3)nc(Cl)c2N)cc1`
### Response false (0)

### Prompt What is the recorded call for this compound in the test? `Brc1ccccc1CSc1nnc(-c2ccc3c(c2)OCO3)o1`
### Response true (1)

### Prompt What is the recorded call for this compound in the test? `CCN(CC)S(=O)(=O)c1ccc(C(=O)Nc2nc(-c3ccccc3)cs2)cc1`
### Response false (0)

### Prompt What is the recorded call for this compound in the test? `COc1cccc(-c2cc(C(=O)O)n3nc(-c4ccccc4)cc3n2)c1`
### Response true (1)

### Prompt What is the recorded call for this compound in the test? `Clc1ccc(-c2noc(CN3CCCN(c4ncccn4)CC3)n2)cc1`
### Response true (1)

### Prompt What is the recorded call for this compound in the test? `CCOc1ccc(NC(=O)Cc2ccc(C)s2)cc1`
### Response true (1)

### Prompt What is the recorded call for this compound in the test? `COc1ccc([C@@H]2CC(=O)c3c(O)cc(O)cc3O2)cc1O`
### Response true (1)

### Prompt What is the recorded call for this compound in the test? `CC(C)c1cnc(COc2ccc(Br)nc2)o1`
### Response false (0)

### Prompt What is the recorded call for this compound in the test? `Clc1cccc(CSc2nnc(-c3ccc4c(c3)OCO4)o2)c1`
### Response false (0)

### Prompt What is the recorded call for this compound in the test? `Cc1ccc(Nc2n[nH]nc2C(=O)Nc2ccc(C)cc2Cl)cc1`
### Response true (1)

### Prompt What is the recorded call for this compound in the test? CCOC(=O)C1CCCN(C(=O)c2cc(-c3cccc(OC)c3)nc3cc(-c4ccccc4)nn23)C1 (stereo not drawn)
### Response false (0)

### Prompt What is the recorded call for this compound in the test? CCc1ccc(C(C)NC(=O)c2ccc(S(=O)(=O)C(F)F)cc2)cc1 (stereo not drawn)
### Response false (0)

### Prompt What is the recorded call for this compound in the test? `Clc1ccc2c(Oc3cccc(Br)c3)ccnc2c1`
### Response false (0)

### Prompt What is the recorded call for this compound in the test? `O=c1cccnn1CCNS(=O)(=O)c1ccc(Cl)s1`
### Response true (1)

### Prompt What is the recorded call for this compound in the test? `O=C(O)c1cc(-c2ccccc2F)nc2cc(-c3ccccc3)nn12`
### Response true (1)

### Prompt What is the recorded call for this compound in the test? COc1ccc(-c2cc3nc(C)cc(NC(C)c4ccccc4)n3n2)cc1OC (stereo not drawn)
### Response false (0)

### Prompt What is the recorded call for this compound in the test? `Clc1ccccc1CSc1nnc(-c2ccc3c(c2)OCO3)o1`
### Response false (0)

### Prompt What is the recorded call for this compound in the test? `O=C1CCCN1CCC1CCN(Cc2nc(-c3ccc(Cl)cc3)no2)CC1`
### Response true (1)

### Prompt What is the recorded call for this compound in the test? `COc1ccccc1C(C)(C)C(=O)n1nc(C(F)(F)F)nc1N`
### Response false (0)

### Prompt What is the recorded call for this compound in the test? `Brc1ccc(CSc2nnc(-c3ccc4c(c3)OCO4)o2)cc1`
### Response true (1)

### Prompt What is the recorded call for this compound in the test? `Clc1ccc2c(Oc3ccc(Br)cc3)ccnc2c1`
### Response true (1)

### Prompt What is the recorded call for this compound in the test? `Cc1ccc(NC(=O)NCCc2csc(C(C)C)n2)c(Cl)c1`
### Response false (0)

### Prompt What is the recorded call for this compound in the test? `Clc1ccc(-c2noc(CN3CCN(c4ncnc5ccccc45)CC3)n2)cc1`
### Response true (1)
